The origin of these recorded values is patent EP4772193A1.

Measured kon of individual entries
Molecular target: T1, recombinant mouse soluble gpNMB (recombinant mouse gpNMB-FLAG-His) (mouse, UniProt Q99P91 23-502)
T1 sequence: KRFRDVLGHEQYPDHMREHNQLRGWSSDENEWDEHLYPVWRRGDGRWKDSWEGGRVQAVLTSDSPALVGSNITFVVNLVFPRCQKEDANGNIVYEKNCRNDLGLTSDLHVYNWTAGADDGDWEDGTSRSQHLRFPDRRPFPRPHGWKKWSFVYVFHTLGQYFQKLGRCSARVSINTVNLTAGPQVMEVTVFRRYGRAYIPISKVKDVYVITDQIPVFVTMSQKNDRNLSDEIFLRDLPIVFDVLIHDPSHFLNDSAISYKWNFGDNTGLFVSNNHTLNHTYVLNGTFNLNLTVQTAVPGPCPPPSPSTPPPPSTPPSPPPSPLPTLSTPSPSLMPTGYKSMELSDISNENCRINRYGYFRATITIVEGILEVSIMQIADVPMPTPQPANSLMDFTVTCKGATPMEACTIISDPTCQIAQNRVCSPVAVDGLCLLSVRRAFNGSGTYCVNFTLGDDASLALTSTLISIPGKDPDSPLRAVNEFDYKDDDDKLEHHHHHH
Test: SPR single-cycle kinetics, antibody over captured gpNMB-FLAG-His, 36C, mean of 2
State the answer as a number, implicitly in M⁻¹ s⁻¹.

Binder	kon, M⁻¹ s⁻¹
hGPN18-5_H3L3 (antibody, V domains shown, humanized; also called hGPN18-5_VH3+VL3) VH: QVQLVQSGAEVKKPGASVKVSCKASGYTFTTYWMNWVRQAPGQGLEWIGAINPSNDYTEYNQKFKDRAIMTADKSTSTVYMELSSLRSEDTAVYYCGRSYSPDYWGQGTTVTVSS VL: DIQMTQSPSSLSASVGDRVTITCKASQNVDNHVAWHQQKPGKAPKALIYSASYRYSGVPDRFTGSGSGTDFTLTISSLQPEDFADYFCQQYKSYPFTFGGGTKLEIK	111000
hGPN18-5_H0L0 (antibody, V domains shown, chimeric antibody with mouse GPN18-5 variable regions (VH0, VL0); also called hGPN18-5_VH0+VL0; HGPN18-5_VH0+VL0) VH: QVQLQQSGAELAKPGTSVKMSCKASGYTFTTYWMNWVKQRPGQDLEWIGAINPSNDYTEYNQKFKDKAILTADKSSNTAYMQLSSLTSEDSAVYYCGRSYSPDYWGQGTTLTVSS VL: DIVMTQSQKFMSTSVGDRVSVTCKASQNVDNHVAWHQQKPGQSPKALIYSASYRYSGVPDRFTGSGSGTDFTLTIRDVQSEDLADYFCQQYKSYPFTFGSGTELEIK	142000
hGPN18-5_H1L1 (antibody, V domains shown, humanized; also called hGPN18-5_VH1+VL1) VH: QVQLVQSGAEVKKPGASVKVSCKASGYTFTTYWMNWVRQAPGQGLEWIGAINPSNDYTEYNQKFKDRVTMTADTSTSTVYMELSSLRSEDTAVYYCGRSYSPDYWGQGTTVTVSS VL: DIQMTQSPSSLSASVGDRVTITCKASQNVDNHVAWFQQKPGKAPKALIYSASYRYSGVPSRFSGSGSGTDFTLTISSLQPEDFATYFCQQYKSYPFTFGGGTKLEIK	73800

Let us move to another entry and its kon.
## Input What value of kon has been recorded for this entry: hGPN18-5_H3L1 (antibody, V domains shown, humanized; also called hGPN18-5 VH3+VL1) VH: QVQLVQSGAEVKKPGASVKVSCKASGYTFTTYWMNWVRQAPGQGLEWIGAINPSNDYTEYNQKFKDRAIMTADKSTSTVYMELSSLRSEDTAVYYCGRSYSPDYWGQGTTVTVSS VL: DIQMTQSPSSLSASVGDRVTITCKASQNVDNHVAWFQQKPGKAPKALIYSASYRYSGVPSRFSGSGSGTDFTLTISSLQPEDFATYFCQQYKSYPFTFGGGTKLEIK
## Output 52900
